- Tested On: human 5-HT2B receptor (Homo sapiens)
- Sequence (P41595 whole entry): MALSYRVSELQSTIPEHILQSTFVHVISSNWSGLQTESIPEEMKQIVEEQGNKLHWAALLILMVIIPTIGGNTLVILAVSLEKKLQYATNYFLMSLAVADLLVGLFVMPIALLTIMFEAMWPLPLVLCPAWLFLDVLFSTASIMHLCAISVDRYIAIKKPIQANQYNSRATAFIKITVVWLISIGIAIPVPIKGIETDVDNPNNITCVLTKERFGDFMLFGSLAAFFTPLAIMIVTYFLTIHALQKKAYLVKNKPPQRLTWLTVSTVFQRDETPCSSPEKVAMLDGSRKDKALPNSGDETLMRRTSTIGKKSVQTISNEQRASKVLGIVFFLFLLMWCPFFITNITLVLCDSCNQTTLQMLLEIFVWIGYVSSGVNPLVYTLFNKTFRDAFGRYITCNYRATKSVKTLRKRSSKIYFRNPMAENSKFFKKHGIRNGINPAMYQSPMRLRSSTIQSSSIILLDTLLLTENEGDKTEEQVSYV
- Procedure Text: Gαq-mediated intracellular calcium mobilization
- Recorded Conditions: calcium flux, HEK-293
Assay Readout: agonism at the 5-HT2B receptor (in words)

{"Compound": "CC(C)COc1ccccc1[C@H]1C[C@@H]1CN.Cl [Compound 11c]", "Reported Result": "inactive"}
{"Compound": "Cl.NC[C@H]1C[C@@H]1c1ccccc1OCC1CC1 (racemic) [Compound 11e]", "Reported Result": "inactive"}

* * *

EC50 by entry:
- Tested On: human 5-HT2C (INI) receptor (Homo sapiens)
- Procedure Text: Gαq-mediated intracellular calcium mobilization
Reply with the number and its unit after it.

{"Item Smiles": "COc1ccc(-c2ccccc2)cc1[C@H]1C[C@@H]1CN", "Tested On": "human 5-HT2C (INI) receptor (Homo sapiens)", "Reported Result": "3.47 µM"}

Given `COc1ccc(-c2ccccc2C)cc1[C@H]1C[C@@H]1CN` , state its recorded EC50.
3.8 µM

* * *

- Tested On: human 5-HT2C (INI) receptor (Homo sapiens, UniProt P28335)
- Sequence (P28335 33-458): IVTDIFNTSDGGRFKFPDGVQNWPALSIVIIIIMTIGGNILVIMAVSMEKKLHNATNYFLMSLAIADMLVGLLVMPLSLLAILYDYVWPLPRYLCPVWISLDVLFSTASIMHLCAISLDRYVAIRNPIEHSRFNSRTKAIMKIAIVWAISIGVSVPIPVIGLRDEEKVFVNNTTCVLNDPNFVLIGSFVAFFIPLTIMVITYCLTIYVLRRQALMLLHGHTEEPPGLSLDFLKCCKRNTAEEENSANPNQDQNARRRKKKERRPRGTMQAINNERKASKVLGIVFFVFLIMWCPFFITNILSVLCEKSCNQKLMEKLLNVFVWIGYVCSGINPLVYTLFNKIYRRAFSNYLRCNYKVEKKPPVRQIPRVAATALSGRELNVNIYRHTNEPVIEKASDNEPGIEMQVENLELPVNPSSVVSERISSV
- Procedure Text: Gαq-mediated intracellular calcium mobilization
- Recorded Conditions: calcium flux, HEK-293
Assay Readout: agonism at the 5-HT2C receptor (in words)

{"Molecule": "Cc1ccc(OCC(C)C)c([C@H]2C[C@@H]2CN)c1.Cl [Compound 10a]", "Reported Result": "much less potent"}
{"Molecule": "CCCCOc1ccc(C)cc1[C@H]1C[C@@H]1CN.Cl [Compound 10b]", "Reported Result": "much less potent"}
